# assay-method-text: AUC (0 to infinity) in Sprague-Dawley rat 1 mg/kg, po
# Type: ADME, organism-based
# Parameters: time infinity, dose 1 mg/kg, route oral
# measurement-context: plasma
reported-property: AUC(0-inf) (ng·h/mL)
Number in ng·h/mL, nothing else.

Which measured AUC(0-inf) value corresponds to `Cc1ccc(C(=O)NC2CC2)cc1-c1ccc2c(N3CCOCC3)nncc2c1` ?
124

====

# experimental-target: Mitogen-activated protein kinase 14 (Homo sapiens)
# Sequence (Q16539 whole entry): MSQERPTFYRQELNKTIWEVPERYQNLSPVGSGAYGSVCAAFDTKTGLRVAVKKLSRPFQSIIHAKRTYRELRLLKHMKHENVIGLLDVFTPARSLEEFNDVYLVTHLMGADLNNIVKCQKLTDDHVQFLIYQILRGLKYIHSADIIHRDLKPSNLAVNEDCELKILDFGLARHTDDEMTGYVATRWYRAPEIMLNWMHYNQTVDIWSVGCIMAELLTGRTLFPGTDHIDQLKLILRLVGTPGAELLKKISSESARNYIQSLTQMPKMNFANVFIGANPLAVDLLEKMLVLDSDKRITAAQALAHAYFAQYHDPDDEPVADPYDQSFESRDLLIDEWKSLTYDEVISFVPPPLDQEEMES
reported-property: log10 of IC50 (log10 of the value in nM)
Heads up, the numbers here are log10 of IC50 in nM units.

Form field: log10 of IC50 recorded for `Cc1ccc(C(=O)NC2CC2)cc1-c1ccc2c(-c3ccccc3)nncc2c1` with Mitogen-activated protein kinase 14 (Homo sapiens) (enter value)
0.30

Form field: log10 of IC50 recorded for `Cc1ccc(C(=O)NC2CC2)cc1-c1ccc2c(N3CCOC[C@@H]3C)nncc2c1` with Mitogen-activated protein kinase 14 (Homo sapiens) (enter value)
0.04

Form field: log10 of IC50 recorded for `Cc1ccc(C(=O)NC2CC2)cc1-c1ccc2c(NCCN3CCOCC3)nncc2c1` with Mitogen-activated protein kinase 14 (Homo sapiens) (enter value)
0.28

Form field: log10 of IC50 recorded for `Cc1ccc(C(=O)NC2CC2)cc1-c1ccc2c(N3CCOCC3)nncc2c1` with Mitogen-activated protein kinase 14 (Homo sapiens) (enter value)
0.08

Form field: log10 of IC50 recorded for `Cc1ccc(C(=O)NC2CC2)cc1-c1ccc2c(OC(C)C)nncc2c1` with Mitogen-activated protein kinase 14 (Homo sapiens) (enter value)
-0.22

Form field: log10 of IC50 recorded for `Cc1ccc(C(=O)NC2CC2)cc1-c1ccc2c(OC(C)C)cncc2c1` with Mitogen-activated protein kinase 14 (Homo sapiens) (enter value)
-0.22

Form field: log10 of IC50 recorded for `O=C(NC1CC1)c1cccc(-c2ccc3c(N4CCOCC4)nncc3c2)c1` with Mitogen-activated protein kinase 14 (Homo sapiens) (enter value)
2.26

Form field: log10 of IC50 recorded for `Cc1ccc(C(=O)NC2CC2)cc1-c1ccc2c(O[C@H](C)C(F)(F)F)nncc2c1` with Mitogen-activated protein kinase 14 (Homo sapiens) (enter value)
-0.10

Form field: log10 of IC50 recorded for `Cc1ccc(C(=O)NC2CC2)cc1-c1ccc2c(O[C@@H](C)C(F)(F)F)nncc2c1` with Mitogen-activated protein kinase 14 (Homo sapiens) (enter value)
0.00

====

# experimental-target: Mitogen-activated protein kinase 9 (Homo sapiens, UniProt P45984)
# Sequence (P45984 whole entry): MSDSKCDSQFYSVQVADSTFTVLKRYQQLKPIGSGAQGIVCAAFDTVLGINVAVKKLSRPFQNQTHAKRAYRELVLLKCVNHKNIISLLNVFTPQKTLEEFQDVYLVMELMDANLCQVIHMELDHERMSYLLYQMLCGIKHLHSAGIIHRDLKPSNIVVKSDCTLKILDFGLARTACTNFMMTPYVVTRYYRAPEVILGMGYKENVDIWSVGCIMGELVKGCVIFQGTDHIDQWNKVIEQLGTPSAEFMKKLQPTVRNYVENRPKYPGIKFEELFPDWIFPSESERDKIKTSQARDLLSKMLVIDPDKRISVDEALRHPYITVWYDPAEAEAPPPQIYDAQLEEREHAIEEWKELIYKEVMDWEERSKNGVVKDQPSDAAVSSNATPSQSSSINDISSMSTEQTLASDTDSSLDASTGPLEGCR
# assay-method-text: Inhibition of JNK2
reported-property: IC50 (µM)
Number in µM, nothing else.

Form field: IC50 recorded for `Cc1ccc(C(=O)NC2CC2)cc1-c1ccc2c(O[C@@H](C)C(F)(F)F)nncc2c1` with Mitogen-activated protein kinase 9 (Homo sapiens, UniProt P45984) (enter value)
7.77

Form field: IC50 recorded for `Cc1ccc(C(=O)NC2CC2)cc1-c1ccc2c(N3CCOCC3)nncc2c1` with Mitogen-activated protein kinase 9 (Homo sapiens, UniProt P45984) (enter value)
9.69

Form field: IC50 recorded for `Cc1ccc(C(=O)NC2CC2)cc1-c1ccc2c(OC(C)C)nncc2c1` with Mitogen-activated protein kinase 9 (Homo sapiens, UniProt P45984) (enter value)
5.95

Form field: IC50 recorded for `Cc1ccc(C(=O)NC2CC2)cc1-c1ccc2c(O[C@H](C)C(F)(F)F)nncc2c1` with Mitogen-activated protein kinase 9 (Homo sapiens, UniProt P45984) (enter value)
4.39

Form field: IC50 recorded for `Cc1ccc(C(=O)NC2CC2)cc1-c1ccc2c(N3CCOC[C@@H]3C)nncc2c1` with Mitogen-activated protein kinase 9 (Homo sapiens, UniProt P45984) (enter value)
4.83
